Data credit: PubChem BioAssay (NCI)

- System: MDA-MB-231 breast
- test method notes: NCI-60 one-dose screen, 48 h
- measurement setup: 10 µM unless noted
This is part of a sample that, as a whole, favours compounds with a hit. Of some 83,000 tested, about 20% had one in any assay. Calls of active or inactive are those of the source. Rule for the calls: active = growth percent below 10; inactive = the rest.
Respond only with the outcome that fits, drawn from active, inactive

Which outcome was entered for the compound CC(C)(C)C(=O)OCOP(=O)(NCc1ccccc1)C1CCCN(O)C1=O (centres undefined) in this test?
inactive

Which outcome was entered for the compound C/C(=C\c1ccn(-c2ccc(N)cc2)n1)[C@@H]1C[C@@H]2O[C@]2(C)CCC[C@H](C)[C@H](O)[C@@H](C)C(=O)C(C)(C)[C@@H](O)CC(=O)O1 in this test?
inactive

Which outcome was entered for the compound CC(=O)O[C@H](C[C@H](C(C)C)N(C)C(=O)[C@@H](NC(=O)[C@H]1CCCCN1C)C(C)C)c1nc(C(=O)N[C@@H](Cc2ccccc2)C[C@H](C)C(=O)O)c(CCOCc2ccccc2)s1 in this test?
active

Which outcome was entered for the compound Cc1ccc(Nc2nc3c(s2)C2=CC[C@@H]4[C@H](CC[C@]5(C)C(=O)CC[C@@H]45)[C@@]2(C)CC3)cc1 in this test?
inactive

* * *

- Tested on: SK-MEL-28 melanoma
- test method notes: NCI-60 one-dose screen, 48 h
- measurement setup: 10 µM unless noted
The panel holds about 83,000 compounds, 20% with a hit somewhere; the sample as a whole holds those more often. Active and inactive are the calls of the source. How the source made its calls: active means growth percent below 10; inactive means the rest.
Respond only with the outcome that fits, drawn from y for active, n for inactive

Which outcome was entered for the compound O=c1[nH]c2ccc([N+](=O)[O-])cc2c(=O)o1 in this test?
n

Which outcome was entered for the compound COc1ccc(/C=C/c2cc(OC)c(OC)c(OC)c2)cc1NC(=O)/C=C/c1ccc(F)cc1 in this test?
n

Which outcome was entered for the compound COC(C(=O)[C@@H](O)[C@@H](C)O)[C@@H]1Cc2cc3cc(O[C@H]4C[C@@H](O[C@H]5C[C@@H](O)[C@H](O)C(C)O5)[C@H](O)C(C)O4)c(C)c(O)c3c(O)c2C(=O)[C@H]1O[C@H]1C[C@@H](O[C@H]2C[C@@H](O[C@H]3C[C@@H](O)[C@@H](O)C(C)O3)[C@@H](O)C(C)O2)[C@H](O)C(C)O1 (stereo partly drawn) in this test?
y

Which outcome was entered for the compound COc1ccc(C(=O)c2sc3nc4c(cc3c2N)N2CCC4CC2)cc1OC in this test?
n

Which outcome was entered for the compound Cc1ccc(S(=O)(=O)C(Cl)(Cl)Cl)cc1 in this test?
n

Which outcome was entered for the compound C[Se]C(=O)c1ccccc1OC(C)=O in this test?
n

Which outcome was entered for the compound O=[As](O)(O)c1ccccc1[As](=O)(O)O in this test?
n

Which outcome was entered for the compound COC(=O)[C@@]1(C)CC[C@]2(C)CC[C@]3(C)C4=CC=C5C(=CC(=O)C(O)=C5C)[C@]4(C)CC[C@@]3(C)[C@@H]2C1 in this test?
y

* * *

- System: PC-3 prostate
- test method notes: NCI-60 one-dose screen, 48 h (100 = growth as untreated, 0 = no growth, -100 = all killed)
- measurement setup: 10 µM unless noted
Compounds without any hit were thinned out: in the full panel of roughly 83,000, 20% have a hit.
The following ranges of growth define the classes used here: class 1: < 30%; class 2: ≥ 30% and < 90%; class 3: ≥ 90%

Categorize the following entry: c1cc2c(c3c1CCNC3)OCO2
class 3

Categorize the following entry: CC12CCC3C(CCC4=CC(=O)CCC43CF)C1CCC2=O (stereo not given)
class 3

Categorize the following entry: COc1ccc(C2=CC(c3ccc(OC)c(OC)c3)c3c(c4ccccc4oc3=O)O2)cc1OC (stereo not given)
class 1

Categorize the following entry: CC(=O)OC1CCC2C3CCC4=C/C(=N/OC(=O)c5ccc(N(CCCl)CCCl)cc5)CCC4(C)C3CC(C)C12 (stereo not given)
class 2

Categorize the following entry: Cc1cc(-c2nc3cc(F)ccc3[se]2)cc(F)c1N
class 2

Categorize the following entry: OCCNC(Cc1ccccc1)c1ccc2c(c1)OCO2 (stereo not given)
class 2

Categorize the following entry: COc1ccc(C(=O)c2cc(OC)c(OC)c(OC)c2)cc1OC(C)=O
class 1

Categorize the following entry: CC(C)(C)N1CC1C#N (stereo not given)
class 3

Categorize the following entry: COc1ccc(/C=C\c2cc(OC)c(OC)c(OC)c2)cc1NC(=O)/C=C/c1ccc(OC)c(OC)c1
class 2

Categorize the following entry: CCOC(=O)[C@@H](C)C[C@H](Cc1ccccc1)NC(=O)c1csc([C@@H](C[C@H](C(C)C)N(C)C(=O)[C@@H](NC(=O)[C@H]2CCCCN2C)C(C)(C)CC)OC(C)=O)n1
class 1

Categorize the following entry: C[N+](C)(C)Cc1cc(Cl)ccc1O
class 3

Categorize the following entry: C=C1C[C@](OC)([C@H](O)C(=O)N[C@@H](OC)[C@@H]2C[C@@H](O)C(C)(C)[C@@H](C[C@@H](COC)OC)O2)O[C@H](C)[C@@H]1C
class 1

Categorize the following entry: CC[C@H](C)[C@H](NC(=O)c1nccn1C)C(=O)N(C)[C@H](C[C@@H](OC(C)=O)c1nc(C(=O)N[C@@H](Cc2ccccc2)C[C@H](C)C(=O)OC)cs1)C(C)C
class 1

Categorize the following entry: C1CCC([PH+](C2CCCCC2)C2CCCCC2[PH+](C2CCCCC2)C2CCCCC2)CC1.O=C(C1[CH-]CCCC1)C1CCCC[N-]1.[Au] (stereo not given)
class 1

Categorize the following entry: Cc1cccc(N2CCN(C(C)C#N)CC2)c1 (stereo not given)
class 3

Categorize the following entry: ClCCN(CCCl)c1ccc(/C=N/Nc2ncnc3nc[nH]c23)cc1
class 3

Categorize the following entry: CN1C(=O)C(=Cc2cn(Cc3ccccc3)c3ccccc23)C(=O)N(C)C1=O
class 2

Categorize the following entry: Cc1cc(N(CCCl)CCCl)ccc1C=Nc1ccc(-c2csc(Cc3ccccc3)n2)cc1
class 2

Categorize the following entry: N#Cc1c(Br)n(C2OC(CO)C(O)C2O)c2ncnc(N)c12 (stereo not given)
class 1

Categorize the following entry: COC(C(=O)[C@@H](O)[C@@H](C)O)[C@@H]1Cc2cc3cc(O[C@H]4C[C@@H](O[C@H]5C[C@@H](O)[C@H](O)C(C)O5)[C@H](O)C(C)O4)c(C)c(O)c3c(O)c2C(=O)[C@H]1O[C@H]1C[C@@H](O[C@H]2C[C@@H](O[C@H]3C[C@@H](O)[C@@H](O)C(C)O3)[C@@H](O)C(C)O2)[C@H](O)C(C)O1 (stereo not given in full)
class 1

Categorize the following entry: O=C(O)c1c(Cl)n(Cc2ccc(O)cc2)c2ccc(O)cc12
class 2

Categorize the following entry: COc1cc(C=Nc2cccc(C(=O)O)c2)ccc1N(CCCl)CCCl
class 3

Categorize the following entry: O=C(Nc1ccc(O)cc1)C(Cl)(Cl)Cl
class 3

Categorize the following entry: C=CC[PH+](c1ccccc1)c1ccccc1.C=CC[PH+](c1ccccc1)c1ccccc1.[Cl][Pt][Cl]
class 2

Categorize the following entry: COC(=O)[C@H](Cc1ccccc1)NC(=O)c1csc([C@@H](C[C@H](C(C)C)N(C)C(=O)[C@@H](NC(=O)[C@H]2CCCCN2C)C2CC2)OC(C)=O)n1
class 1

Categorize the following entry: CC12CCC3C(CCC4Cc5[nH]c6ccccc6c5CC43C)C1CCC2O (stereo not given)
class 2

Categorize the following entry: CC[C@H](C)[C@H](NC(=O)[C@H]1CCCCN1C)C(=O)N(C)[C@H](C[C@@H](OC(C)=O)c1nc(C(=O)N[C@@H](Cc2ccccc2)C[C@H](C)C(=O)OC)cs1)C(C)C
class 1

Categorize the following entry: CCOc1ccccc1C(=O)OCC(Cl)(Cl)Cl
class 3

Categorize the following entry: COC(=O)N[C@H]1CCc2c(Br)c(OC)c(OC)c(OC)c2-c2ccc(SC)c(=O)cc21
class 1

Categorize the following entry: CC[C@H](C)[C@H](NC(=O)C12C3C4C1C1C2C3C41NC(C)=O)C(=O)N(C)[C@H](C[C@@H](OC(C)=O)c1nc(C(=O)N[C@@H](Cc2ccccc2)C[C@H](C)C(=O)OC)cs1)C(C)C (stereo not given in full)
class 1

* * *

- Test system: SF-539 CNS
- test method notes: NCI-60 one-dose screen, 48 h
- measurement setup: 10 µM unless noted
About 83,000 compounds went through this panel and 20% of them were active in at least one assay; those are over-represented in the sample as a whole. Active and inactive are the calls of the source. Rule for the calls: active = growth percent below 10; inactive = the rest.
Respond only with the outcome that fits, drawn from 1.0 = active, 0.0 = inactive

Which outcome was entered for the compound COc1cccc2c1c(C(=O)c1ccco1)cn2Cc1ccc(F)cc1 in this test?
0.0

Which outcome was entered for the compound O=C(O)c1c(Cl)n(Cc2ccc(O)cc2)c2ccc(O)cc12 in this test?
0.0

Which outcome was entered for the compound CCOC(=O)C(Cc1ccc(N(CCCl)CCCl)cc1)NC(=O)C(CC(C)C)NC(C)=O (stereo not given) in this test?
0.0

Which outcome was entered for the compound COc1cc([C@@H]2c3cc4c(cc3[C@H](OC(C)=O)[C@H]3COC(=O)[C@H]23)OCO4)cc(OC)c1OC in this test?
1.0

Which outcome was entered for the compound CC[C@H](C)[C@@H]([C@@H](CC(=O)N1CCC[C@H]1[C@H](OC)[C@@H](C)C(=O)N[C@H](C)[C@@H](O)c1ccccc1)OC)N(C)C(=O)[C@@H](NC(=O)[C@@H](NC)C(C)C)C(C)C in this test?
1.0

Which outcome was entered for the compound O=[N+]([O-])CC(c1ccccc1Cl)c1c(-c2ccccc2)[nH]c2ccccc12 (stereo not given) in this test?
0.0

Which outcome was entered for the compound CCCCCCCC[n+]1ccc2ccccc2c1 in this test?
0.0

Which outcome was entered for the compound Nc1ccc(Cl)cc1 in this test?
0.0

Which outcome was entered for the compound O=NNc1ccccn1 in this test?
0.0

Which outcome was entered for the compound COc1cc2c(=O)n(C3CCCCCCC3)c3c4cc[nH]c4ncc3c2cc1OC in this test?
1.0

Which outcome was entered for the compound ClCCN(CCCl)c1nc(Cl)c(C2CC(c3ccccc3)=NN2c2cc(Cl)cc(Cl)c2)s1 (stereo not given) in this test?
0.0

Which outcome was entered for the compound O=C1C=C2C(=CCOC2O)O1 (stereo not given) in this test?
1.0

Which outcome was entered for the compound CCCCN(CCCC)P(=O)(Oc1ccccc1)Oc1ccccc1 in this test?
0.0

Which outcome was entered for the compound CN1C(=O)C(=Cc2cn(Cc3ccccc3)c3ccccc23)C(=O)N(C)C1=O in this test?
0.0

Which outcome was entered for the compound CCCCCCCCCCCCCCCCCCOc1ccccc1COP(=O)(O)OOCC[N+](C)(C)C in this test?
1.0

Which outcome was entered for the compound Cc1cccc(N2CCN(C(C)C#N)CC2)c1 (stereo not given) in this test?
0.0

Which outcome was entered for the compound C[C@]12CC[C@@H]3c4ccc(Oc5nc(N6CC6)nc(N6CC6)n5)cc4CC[C@H]3[C@@H]1CCC2=O in this test?
0.0

Which outcome was entered for the compound Fc1ccc2c(c1)c(-c1nc(-c3c[nH]c4ncccc34)cs1)cn2CCN1CCOCC1 in this test?
0.0

Which outcome was entered for the compound COC(=O)CCc1c[nH]c2ccc(N(CCCl)CCCl)cc12 in this test?
0.0

Which outcome was entered for the compound Fc1cccc(NCOOC2(OOCNc3cccc(F)c3)CCCCC2)c1 in this test?
0.0

Which outcome was entered for the compound CN1CC(CNC(=O)OCc2ccccc2)CC2c3cccc4c3c(cn4C)CC21 (stereo not given) in this test?
0.0

Which outcome was entered for the compound COC(=O)[C@H](Cc1ccccc1)NC(=O)c1csc([C@@H](C[C@H](C(C)C)N(C)C(=O)[C@@H](NC(=O)[C@H]2CCCN2C)C2CC2)OC(C)=O)n1 in this test?
1.0

Which outcome was entered for the compound O=C1OCCC1Br (stereo not given) in this test?
0.0

Which outcome was entered for the compound O=C1C2CCC1C(N1CCCC1)CC2 (stereo not given) in this test?
0.0

Which outcome was entered for the compound c1cc2c(c3c1CCNC3)OCO2 in this test?
0.0

Which outcome was entered for the compound CCOC(=O)N1CC1 in this test?
0.0

Which outcome was entered for the compound ClCCN(CCCl)Cc1ccc(Nc2ccnc3cc(Cl)ccc23)cc1 in this test?
1.0

Which outcome was entered for the compound CN1CC(=O)N(O)C1(C)c1cccnc1 (stereo not given) in this test?
0.0

Which outcome was entered for the compound COC(=O)C12CC(NC(=O)c3csc([C@@H](C[C@H](C(C)C)N(C)C(=O)[C@@H](NC(=O)[C@H]4CCCCN4C)C4CC4)OC(C)=O)n3)(C1)C2 in this test?
1.0

Which outcome was entered for the compound CCOC(=O)c1c(C)n(Cc2ccccc2)c2cc(CN(C)C)c(O)cc12 in this test?
0.0

Which outcome was entered for the compound C[n+]1c(/C=C/c2ccc(N(CCCl)CCCl)cc2)sc2ccccc21 in this test?
0.0

Which outcome was entered for the compound Brc1ccc2c(c1)c(-c1nc(-c3c[nH]c4ncccc34)cs1)cn2CCN1CCOCC1 in this test?
0.0

Which outcome was entered for the compound CCn1c2ccccc2c2cc(C(=O)c3cccc4c3CCCN4)ccc21 in this test?
0.0

Which outcome was entered for the compound C#Cc1ccc2c(c1)C(c1ccccc1F)=NCC(=O)N2C in this test?
0.0

Which outcome was entered for the compound CN(C)C1C(=O)C(C(N)=O)=C(O)C2(O)C(=O)C3=C(O)c4c(O)cccc4C(C)(O)C3CC12.[Cl][Sb]([Cl])[Cl] (stereo not given) in this test?
0.0

Which outcome was entered for the compound CN1C(=O)C23CC4(C56CC78SSC(CO)(C(=O)N7C5Nc5ccccc56)N(C)C8=O)c5ccccc5NC4N2C(=O)C1(CO)SS3 (stereo not given) in this test?
1.0

Which outcome was entered for the compound COc1ccc2nc(NC(=O)COc3cc(/C=C\c4cc(OC)c(OC)c(OC)c4)ccc3OC)sc2c1 in this test?
1.0

Which outcome was entered for the compound C[C@]12C[C@@H](CO)[C@H](O)C[C@@H]1CC[C@@H]1[C@@H]2CC[C@]2(C)[C@@H](O)CC[C@@H]12 in this test?
0.0

Which outcome was entered for the compound C/C(=C\c1ccn(-c2ccc(N)cc2C(F)(F)F)n1)[C@@H]1C[C@@H]2O[C@]2(C)CCC[C@H](C)[C@H](O)[C@@H](C)C(=O)C(C)(C)[C@@H](O)CC(=O)O1 in this test?
1.0

Which outcome was entered for the compound O=C1C2CC=CCC2C(=O)N1SC(Cl)(Cl)Cl (stereo not given) in this test?
0.0
